Hey, just so you know, these numbers are from the supplement of paper PMC8617591.

- System: Mycobacterium tuberculosis Erdman (autoluminescent)
- Protocol Text: total FIC50 (Loewe) at 50% inhibition, three-drug combination (log2); higher = more antagonistic
- Assay Context: in vitro model: dormancy (butyrate + nitrate, low O2); time point: terminal (~4-5 doublings, model-specific)
Quantity Measured: total FIC50

// known answers, use as guide
- Compound: "COc1nc2ccc(Br)cc2cc1[C@@H](c1ccccc1)[C@@](O)(CCN(C)C)c1cccc2ccccc12 [bedaquiline] + CC[C@@H](CO)NCCN[C@@H](CC)CO [ethambutol] + CO[C@H]1/C=C/O[C@@]2(C)Oc3c(C)c(O)c4c(O)c(c(/C=N/N5CCN(C6CCCC6)CC5)c(O)c4c3C2=O)NC(=O)/C(C)=C\\C=C\\[C@H](C)[C@H](O)[C@@H](C)[C@@H](O)[C@@H](C)[C@H](OC(C)=O)[C@@H]1C [rifapentine]"
  total FIC50: 0.39
- Compound: "NNC(=O)c1ccncc1 [isoniazid] + CC(=O)NC[C@H]1CN(c2ccc(N3CCOCC3)c(F)c2)C(=O)O1 [linezolid] + CO[C@H]1/C=C/O[C@@]2(C)Oc3c(C)c(O)c4c(O)c(c(/C=N/N5CCN(C)CC5)c(O)c4c3C2=O)NC(=O)/C(C)=C\\C=C\\[C@H](C)[C@H](O)[C@@H](C)[C@@H](O)[C@@H](C)[C@H](OC(C)=O)[C@@H]1C [rifampicin]"
  total FIC50: 0.231
- Compound: "NNC(=O)c1ccncc1 [isoniazid] + O=[N+]([O-])c1cn2c(n1)OC[C@@H](OCc1ccc(OC(F)(F)F)cc1)C2 [pretomanid] + NC(=O)c1cnccn1 [pyrazinamide]"
  total FIC50: -0.137
- Compound: "COc1nc2ccc(Br)cc2cc1[C@@H](c1ccccc1)[C@@](O)(CCN(C)C)c1cccc2ccccc12 [bedaquiline] + NNC(=O)c1ccncc1 [isoniazid] + CO[C@H]1/C=C/O[C@@]2(C)Oc3c(C)c(O)c4c(O)c(c(/C=N/N5CCN(C)CC5)c(O)c4c3C2=O)NC(=O)/C(C)=C\\C=C\\[C@H](C)[C@H](O)[C@@H](C)[C@@H](O)[C@@H](C)[C@H](OC(C)=O)[C@@H]1C [rifampicin]"
  total FIC50: 0.347
- Compound: "NNC(=O)c1ccncc1 [isoniazid] + O=[N+]([O-])c1cn2c(n1)OC[C@@H](OCc1ccc(OC(F)(F)F)cc1)C2 [pretomanid] + CO[C@H]1/C=C/O[C@@]2(C)Oc3c(C)c(O)c4c(O)c(c(/C=N/N5CCN(C6CCCC6)CC5)c(O)c4c3C2=O)NC(=O)/C(C)=C\\C=C\\[C@H](C)[C@H](O)[C@@H](C)[C@@H](O)[C@@H](C)[C@H](OC(C)=O)[C@@H]1C [rifapentine]"
  total FIC50: 2.7

Reported total FIC50 for CC[C@@H](CO)NCCN[C@@H](CC)CO [ethambutol] + O=[N+]([O-])c1cn2c(n1)OC[C@@H](OCc1ccc(OC(F)(F)F)cc1)C2 [pretomanid] + CO[C@H]1/C=C/O[C@@]2(C)Oc3c(C)c(O)c4c(O)c(c(/C=N/N5CCN(C6CCCC6)CC5)c(O)c4c3C2=O)NC(=O)/C(C)=C\C=C\[C@H](C)[C@H](O)[C@@H](C)[C@@H](O)[C@@H](C)[C@H](OC(C)=O)[C@@H]1C [rifapentine] : what is it?
0.154
